Target: T1, huIL-18Rβ-HisAvi (human, UniProt O95256 20-356, biotinylated in the Octet blocking assay)
T1 construct: Soluble analyte in all SPR runs; captured on streptavidin sensors in the Octet assay; also called human IL-18Rβ; human IL-18Rβ-Avi-His
T1 sequence: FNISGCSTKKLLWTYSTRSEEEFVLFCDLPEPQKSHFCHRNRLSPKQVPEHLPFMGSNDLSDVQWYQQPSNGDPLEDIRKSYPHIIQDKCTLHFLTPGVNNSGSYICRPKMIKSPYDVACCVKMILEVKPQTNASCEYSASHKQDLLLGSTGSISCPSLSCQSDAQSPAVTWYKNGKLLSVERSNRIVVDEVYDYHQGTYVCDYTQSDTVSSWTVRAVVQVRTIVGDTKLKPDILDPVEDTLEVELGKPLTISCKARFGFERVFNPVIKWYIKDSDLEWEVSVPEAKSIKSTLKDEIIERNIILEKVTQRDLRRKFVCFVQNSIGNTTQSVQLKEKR
Assay: SPR T200, mAb on anti-hFc, 37C, pH 6
property: kon (M⁻¹ s⁻¹)
Number in M⁻¹ s⁻¹, nothing else.

- binder: "P20-V2 (antibody, human IgG1, kappa, V domains shown, Variant of P20) VH: QVQLQESGPGLVKPSETLSLTCTVSGGSINNYYWSWIRQPPGKGLEWIGYIFYSGTTNYNPSLKSRVTISVDTSKNQFSLKLSSVTAADTAVYYCARDVGIAARNSYYYVMDVWGQGTTVTVSS VL: AIQLTQSPSSLSASVGDRVTITCRASQGISSALAWYQQKPGKAPKFLIYEGSSLESGVPSRFSGSGSGTDFTLTISSLQPEDFATYYCQQFNSYPITFGQGTRLEIKR"
  kon / M⁻¹ s⁻¹: 440000
- binder: "P20-V1 (antibody, human IgG1, kappa, V domains shown, Variant of P20) VH: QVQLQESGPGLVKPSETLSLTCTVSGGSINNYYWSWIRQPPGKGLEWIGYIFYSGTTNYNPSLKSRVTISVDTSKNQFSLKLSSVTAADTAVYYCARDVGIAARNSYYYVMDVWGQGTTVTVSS VL: AIQLTQSPSSLSASVGDRVTITCRASQGISSALAWYQQKPGKAPKFLIYEASSLESGVPSRFSGSGSGTDFTLTISSLQPEDFATYYCQQFNSYPITFGQGTRLEIKR"
  kon / M⁻¹ s⁻¹: 340000
- binder: "P21-V1 (antibody, human IgG1, kappa, V domains shown, Variant of P21) VH: QVQLQESGPGLVKPSETLSLTCTVSGGSISNYYWTWIRQPPGKGLEWIGYISDSGSTNYNPSLKSRVTISVDTSKNQFSLKLSSVTAADTAVYYCARETIVVRGFYFYVMDVWGQGTTVTVSS VL: AIQLTQSPSSLSASVGDRVTITCRASQGISSALAWYQQKPGKAPKLLIYEASNWESGVPSRFSGSGSGTDFTLTISSLQPEDFATYYCQQFNSYPWTFGQGTKVEIKR"
  kon / M⁻¹ s⁻¹: 460000

Check the records and state kon for P21 (antibody, human IgG1, kappa, V domains shown, Human IgG) VH: QVQLQQSGPGLVKPSETLSLTCTVSGGSISNYYWTWIRQPPGKGLEWIGYISDSGSTNYNPSLKSRVTISVDTSKNQFSLKLSSVTAADTAVYYCARETIVVRGFYFYVMDVWGQGTTVTVSS VL: AIQLTQSPSSLSASVGDRVTITCRASQGISSALAWYQQRPGKAPKLLIYDASNWESGVPSRFSGSGSGTDFTLTISSLQPEDFATYYCQQFNSYPWTFGQGTKVEIKR
480000

Numbers sourced from patent US20250230251A1.
